Values compiled from ChEMBL document CHEMBL1143091.

// values below are reported MIC
- Tested on: Aspergillus fumigatus
- run_description: Antimicrobial activity against Aspergillus fumigatus isolates
- Assay type: functional

Known results for compounds:
| compound | measured_target | MIC |
| --- | --- | --- |
| O=C(Nc1ccc(-c2ccc(OCC(O)(Cn3cncn3)c3ccc(F)cc3F)cc2)cn1)c1ccc(CCl)cc1 (stereo not drawn) | Aspergillus fumigatus | > 64 µg/mL |
| O=C(O)c1ccc(NCc2ccc(-c3ccc(OCC(O)(Cn4cncn4)c4ccc(F)cc4F)cc3)cc2)cc1 (stereo not drawn) | Aspergillus fumigatus | 16 µg/mL |
| CC(=O)N1CCN(c2ccc(OCC3COC(Cn4ccnc4)(c4ccc(Cl)cc4Cl)O3)cc2)CC1 (stereo not drawn) | Aspergillus fumigatus | 1 µg/mL |
| O=Cc1ccc(-c2ccc(OCC(O)(Cn3cncn3)c3ccc(F)cc3F)cc2)cc1 (stereo not drawn) | Aspergillus fumigatus | > 64 µg/mL |
| O=C(CCl)Nc1ccc(-c2ccc(OCC(O)(Cn3cncn3)c3ccc(F)cc3F)cc2)cn1 (stereo not drawn) | Aspergillus fumigatus | > 64 µg/mL |
| C[C@@H]1COC[C@H](C)N1Cc1ccc(C(=O)Nc2ccc(-c3ccc(OCC(O)(Cn4cncn4)c4ccc(F)cc4F)cc3)cn2)cc1 (stereo partly drawn) | Aspergillus fumigatus | > 64 µg/mL |

Observed MIC on Aspergillus fumigatus for OC(COc1ccc(-c2ccc(NCc3ccccc3)nc2)cc1)(Cn1cncn1)c1ccc(F)cc1F (stereo not drawn) , please.
4 µg/mL

Observed MIC on Aspergillus fumigatus for O=C(CN1CCCCC1)Nc1ccc(-c2ccc(OCC(O)(Cn3cncn3)c3ccc(F)cc3F)cc2)cn1 (stereo not drawn) , please.
> 64 µg/mL

Observed MIC on Aspergillus fumigatus for O=C(Nc1ccc(-c2ccc(OCC(O)(Cn3cncn3)c3ccc(F)cc3F)cc2)cn1)c1ccc(CN2CCCCC2)cc1 (stereo not drawn) , please.
4 µg/mL

Observed MIC on Aspergillus fumigatus for CN(C)Cc1ccc(-c2ccc(OCC(O)(Cn3cncn3)c3ccc(F)cc3F)cc2)cc1 (stereo not drawn) , please.
64 µg/mL

Observed MIC on Aspergillus fumigatus for Nc1ccc(-c2ccc(OCC(O)(Cn3cncn3)c3ccc(F)cc3F)cc2)cn1 (stereo not drawn) , please.
4 µg/mL

Observed MIC on Aspergillus fumigatus for OCc1ccc(-c2ccc(OCC(O)(Cn3cncn3)c3ccc(F)cc3F)cc2)cc1 (stereo not drawn) , please.
> 64 µg/mL

Observed MIC on Aspergillus fumigatus for ON=Cc1ccc(-c2ccc(OCC(O)(Cn3cncn3)c3ccc(F)cc3F)cc2)cc1 (stereo not drawn) , please.
> 64 µg/mL

Observed MIC on Aspergillus fumigatus for Oc1ccc(CNc2ccc(-c3ccc(OCC(O)(Cn4cncn4)c4ccc(F)cc4F)cc3)cn2)cc1 (stereo not drawn) , please.
> 64 µg/mL

* * *

- System: Candida parapsilosis
- run_description: Antimicrobial activity against Candida parapsilosis isolates
- condition_set: Lodderomyces parapsilosis
reported_endpoint: MIC

Known results for compounds:
| compound | MIC |
| --- | --- |
| O=Cc1ccc(-c2ccc(OCC(O)(Cn3cncn3)c3ccc(F)cc3F)cc2)cc1 (stereo not drawn) | > 64 µg/mL |
| CCNCc1ccc(-c2ccc(OCC(O)(Cn3cncn3)c3ccc(F)cc3F)cc2)cc1 (stereo not drawn) | 0.25 µg/mL |
| C[C@@H]1[C@H](O)[C@@H](C)/C=C/C=C/C=C/C=C/C=C/C=C/C=C/[C@H](O[C@@H]2O[C@H](C)[C@@H](O)[C@H](N)[C@@H]2O)C[C@@H]2O[C@](O)(C[C@@H](O)C[C@@H](O)[C@H](O)CC[C@@H](O)C[C@@H](O)CC(=O)O[C@H]1C)C[C@H](O)[C@H]2C(=O)O | 1 µg/mL |
| OC(COc1ccc(-c2ccc(CNc3cccc(Cl)c3)cc2)cc1)(Cn1cncn1)c1ccc(F)cc1F (stereo not drawn) | 0.25 µg/mL |
| Cc1ccc(C(=O)Nc2ccc(-c3ccc(OCC(O)(Cn4cncn4)c4ccc(F)cc4F)cc3)cn2)cc1 (stereo not drawn) | 0.0625 µg/mL |
| OC(COc1ccc(-c2ccc(NCc3ccccc3)nc2)cc1)(Cn1cncn1)c1ccc(F)cc1F (stereo not drawn) | 0.0625 µg/mL |
| C[C@@H]1COC[C@H](C)N1Cc1ccc(C(=O)Nc2ccc(-c3ccc(OCC(O)(Cn4cncn4)c4ccc(F)cc4F)cc3)cn2)cc1 (stereo partly drawn) | 0.0625 µg/mL |

Give the measured MIC of OC(Cn1cncn1)(Cn1cncn1)c1ccc(F)cc1F .
4 µg/mL

* * *

// values below are reported MIC
- Tested on: Aspergillus fumigatus
- run_description: Antimicrobial activity against Aspergillus fumigatus isolates
- Format: functional

| compound | MIC |
| --- | --- |
| Oc1ccccc1CNc1ccc(-c2ccc(OCC(O)(Cn3cncn3)c3ccc(F)cc3F)cc2)cn1 (centres undefined) | 64 µg/mL |
| OC(COc1ccc(-c2ccc(NCc3cccc(Cl)c3)nc2)cc1)(Cn1cncn1)c1ccc(F)cc1F (centres undefined) | > 64 µg/mL |
| OC(Cn1cncn1)(Cn1cncn1)c1ccc(F)cc1F | > 64 µg/mL |

Okay, now this compound:
Give the measured MIC of CNCc1ccc(-c2ccc(OCC(O)(Cn3cncn3)c3ccc(F)cc3F)cc2)cc1 (centres undefined) .
> 64 µg/mL
